FYI, the data here is from patent US5571685A.

test_system: morphinone reductase (Pseudomonas putida, UniProt Q51990)
recorded_conditions: forward (reduction) direction, with NADH
metric: Enzyme activity against compound as substrate

Observe how each entry below is paired with its result.
> print(dat)
                                   compound                               test.system            measurement
1  CC(=O)[C@H]1CC[C@H]2[C@@H]3CCC4=CC(=O)CC[C@]4(C)[C@H]3CC[C@]12C [progesterone]  morphinone reductase (Pseudomonas putida, UniProt Q51990)            No activity
2  C[C@]12CCC(=O)C=C1CC[C@@H]1[C@@H]2C(=O)C[C@@]2(C)[C@H]1CC[C@]2(O)C(=O)CO [cortisone]  morphinone reductase (Pseudomonas putida, UniProt Q51990)            No activity
3  COc1ccc2c3c1O[C@H]1[C@H](O)C=C[C@H]4[C@@H](C2)N(C)CC[C@@]341 [isocodeine]  morphinone reductase (Pseudomonas putida, UniProt Q51990)            No activity
4  COc1ccc2c3c1O[C@H]1[C@@H](O)C=C[C@H]4[C@@H](C2)N(C)CC[C@@]341 [codeine]  morphinone reductase (Pseudomonas putida, UniProt Q51990)            No activity
5  COc1ccc2c3c1O[C@H]1C(=O)C=C[C@H]4[C@@H](C2)N(C)CC[C@]314 [Codeinone, codeinone]  morphinone reductase (Pseudomonas putida, UniProt Q51990)  Activity was detected

Continue with the compound presented below.
Inquiry: Answer with reported Enzyme activity against compound as substrate of COc1ccc2c3c1O[C@H]1C(=O)CC=C4[C@@H](C2)N(C)CC[C@]431 [Neopinone, neopinone]
Reply text: Activity was detected
